assay: yeast display, Sf9 membrane polyspecificity reagent, FACS + sequencing; frameworks hold sequencing errors

Item sequence	polyreactivity (PSR sort gate)
QVQLVESGGGLVQAGGSLRLSCAASGGIFIFYAMGWYRQAPGKERELVAAISNVSSTNYADSVKGRFTISRDNAKNTVYLQMNSLKPEDTAVYYCNAVGVPSEYYSWGQGTQVTVSS	low polyreactivity
QVQLVESGGGLVQAGGSLRLSCAASGFNSDWYAMGWSRQAPGKERELVATIDWIGGSTYADSVKGRFTISRDNAKNTVFLQMNSLKPEDTAVYYCAADSYFIAWYGAHYAYDYWGQGTQVTVSS	low polyreactivity

* * *

test: yeast display, Sf9 membrane polyspecificity reagent, FACS + sequencing; frameworks hold sequencing errors

Item sequence	polyreactivity (PSR sort gate)
QVQLVESGGGLVQAGGSLRLSCAASGYTFHGYAMGWYRQAPGKERELVAVITQRGGSTSYADSVKGRFTISRDNAKNTVYLQMNSLKPEDTAVYYCEYYYWGQGTQVTVSS	low polyreactivity
QVQLVESGGGLVQAGGSLRLSCAASGFIFDAYAMGWYRQAPGKERELVAAITRGNTYYADSVKGRFTISRDNAKNTVYLQMNSLKPEDTALYYCNADYNYANYPHDYWGQVTQVTVSS	low polyreactivity
QVQIVESGGGLVQAGGSLRLSCAASGRTFVVNAMGWYRQAPGKERELVASISNKGSTYYADSVKGRFTISRDNAKNTVYLQMNSLNPEDTAVYYCAADEYWSWDGTRYGVHYYYWGQGTQVTVSS	low polyreactivity
QVQLVESGGGLVQAGGSLRLSCASSGRIFWRNAMGWYRQAPGKERELVAAITSGGRTNYADSVKGRFTISRDNAKNPVYLQMNSLKPEDTAVYYCNALWRGRYGYWGQGTQVTVSS	high polyreactivity
QVQLVESGGGLVQAGGSLRLSCAASGRTYVVKAMGWYRQAPGKERELVAAIIRGNTYYADSVKGRFTISRDNAKNTVYLQMNSLKPEDTAVYYCAARYSPYKYYYWGQGTQVTVSS	high polyreactivity

* * *

assay: yeast display, Sf9 membrane polyspecificity reagent, FACS + sequencing; frameworks hold sequencing errors

Item sequence	polyreactivity (PSR sort gate)
QVQLVESGGGLVQAGGSIRLSCAASGGTFSYYAMGWYRQAPGKESELVAAISGNGDTTYYADSVKGRFTISRDNAKNTDYVQMNSLKPEDTAVYYCATAFSYGGGAYDYWGQGTLVTVSS	low polyreactivity
QVQLVESGGGLVQAGGSLRLSCAASGSIFDVYTMGWYRQAPGKERELVAAINTGGGSTYYADSVKGRFTISRDNAKNTVYLQMNSLKPEETAVYYCAASVYHYGPLYYWGQGTQVTVSS	low polyreactivity
QDQLVESRGGLVQAGGSLRLSCAASGSTFGKNTMGWYRQAPGKERELVAAISRGVSTYYADSVKGRFTISRDNAKNTVYLQMNSLKPEDTAVYYCAAQEAYRWYGFDYWGQGTQVTVSS	high polyreactivity
QVHLVETGGALVQAGGSLRISCAASGLTFLDYAMGWYRQSTGKERELGAAITSGGSTNYADSVKGRFTISGDNATTTVYFQMISLKPEDTAVYYCATDLEVSAYDYWGQGNQVTVSS	low polyreactivity
QVQLVESGGGLVQAGGSLRLSCAASGLTFRVYAMVWYRQAPGKERELVAAISKRGGSTYYADSVKGRFTISRDNAKKTVYLQMNSLKPEENAVYSCAADSDNSVRLAGSGGNYCGQGTQVTVSS	high polyreactivity

* * *

assay: yeast display, Sf9 membrane polyspecificity reagent, FACS + sequencing; frameworks hold sequencing errors
Test readout: polyreactivity (PSR sort gate)

Item sequence	Recorded result
QVQLVESGGGLVQAGGSLRLSCAASGSTLVTHAMGWYRQAPGKERELVAGISRSGGSTYYADSVKGRFTISRDNAKNTVYLQMNSLKPEDTAVYYCAARNYRYLYRMEYWGQGTQVTVSS	high polyreactivity
QDQHVESGGGLVQAGGSLRLSCAASGLTFGTYAKGWYRQAPGKERELVAAITTGARTYFADSVKGRFTISRDNAKNTVYLKMNSLKPEDTAVYYCAAYKFYSEYEYWGQGTQVTVSS	high polyreactivity
QVQLVESAGGLVQAGGSLSLSCAASGTFYLYARGWYRQAPGKQRELVAAISGSGSTNYADSVKGRFTISRDNAKNTVYLQMNSLKPEDTAVYYCAAYQRYDSVTGARYEYDYWGQGTQVTVSS	low polyreactivity
QDQLVESGGGLVQAGGSLRLSCAASGFTFSYYTMGWYRHAPGKERELVAAISSTGVSTYYADSVKGRFTISRDNAKNTVYLQMNSLKPEDTAVYYCAADYYGVYEYYYWGQGTQVTVSS	high polyreactivity
QVQLVESGGGLVQAGGRLRLISAASGSIFYYNAMGWYRQAPGKERELVAAISWSADSTYYADSVKGRFTISRDNAKNTVYLQMNSLKPEDSAAYYCNTDLVPWTEYWYDYWGQGTQVTVSS	low polyreactivity

* * *

assay: yeast display, Sf9 membrane polyspecificity reagent, FACS + sequencing; frameworks hold sequencing errors

Item sequence	polyreactivity (PSR sort gate)
QVQLVESGGGLVQAGGSLRLSCAASVSTFYRYTMVWYRQAPGKERELVAAITYRGGTTYYADSVKGRFTISRDNAKNTVYLQMNSLKPEDTAVYYCAAYSSLGYIMNYWGQGTQVTVSS	high polyreactivity
QVQLVESGGGLVQAGGSLRLSCAASGRTFSYYAMGWYRQAPGKERELVAAISRAGRTNYADSVKGRFTISRDNAKNTVYLQMHSLKPEDTAVYYCAADLAYGRPFVSYRTRDWGQGTQVTVSS	high polyreactivity
LVQLVESGGGLVQAGGSLRLSCAASGSIFRYYVMGWYRQAPGKDRELVAAISTGDRTNYADSVKGRFTISRDNPKKTVYLQMNSQKPEDTAVYYCNADYVVGWARLEFNYWGQGTQVTVSS	low polyreactivity
QVQLVESGGGLVQAGGSLRLSCAASGFTFWYYAMGWYRQAPGKERELVAAITYNGDRTYYADSVKGRFTISRDNAKNTVYLQMNSLKPEDTAVYYCAAAFVSVRKRYGYWGQGTQVTVSS	high polyreactivity
QVQLVESGGGLVQAGGSLRLSCAASGRTFIAYAMGWYRPAPGKERALVAAITSSGGSTYYADSVKGRFTISRDNAKNTVYLQMNSLKPEDTAVFYCATDIYESPYFYYSYYYWGQGTQVTVSS	low polyreactivity
QDQLVESGGGLVQAGGSLRLSCAASGLTFQSYAMGWYRQAPGKERELVATISNGSSTYYADSVKGRFTISRDNAKNTVYLQMNSLKPEDTAVYYFAKDYYYSRNPLYGLDYWGQGTQVTVSS	low polyreactivity
QVQLVESGGGLVQAGGSLRLSCAASGIIFPFYAMGWYRQAPGKERELVAAITSGGDTYYADSVKGRFTISRDNAKNTVYLQMNSLKPEDTAVYYCAAVYRRQYGYWGQGTQVTVSS	high polyreactivity
QVQLVESGGGLVQAGGSLRLSCAASGRIFLDNTMGGYRQATGKERELVATISSGASTNYADSVKGRFTISRDNAKNTVYLQMNSLKPEDTGVYYCNARVGGYPLWYKKYYYWGQGTQVNVSS	low polyreactivity
QVQLVESGGGLVQAGGSLRLSCAASGRIFKYNAMGWYRQAPGKEREFVARITSGGRTYYADSVKGRFTISRDNAKNTVYLQMNSLKPEDTAVYYCNAEDVRYWVRGYRMGYWGQGTQVTVSS	high polyreactivity
QVQLVESGGGLVQAGGSLRLSCAASGRIFGSYAMGWYRQAPWKERELVAAINWRGGSTFYADSVKGRFTISRDNAKNTVYLLMNSLKPEDTAVYYCARSGYRQSGDYWGQGTQVTVSS	low polyreactivity
QVQLVESGGGLVQAGGSLRLSCAASGSTFVYYAMGWYRQAPGKERELVAAITSGDSTYYADSVKGRFTISRDNAKNTVYLQMNSLKPEDTAVYYCAKRGGYKWIYGYWGQGTQVTVSS	low polyreactivity

* * *

test: yeast display, Sf9 membrane polyspecificity reagent, FACS + sequencing; frameworks hold sequencing errors
Test readout: polyreactivity (PSR sort gate)

Item sequence	Test readout	Recorded result
QVQLVESGGGLVQAGGSLRLSCAASGRIFGFYAMGLYRQAPGKERELVARITLSGGRTYYADSVKGRFTISRDNAKNTVYLQMNSLKPEDTAVYYCAADSIGRLWGYGYWGQGTQVTVSS	polyreactivity (PSR sort gate)	high polyreactivity
QVQLVESGGGLVQAGGSLRLSCAASGFIFAYYAMGWYRQAPGKERELVAAISSRAGRTYYADSVKGRFTISRDNAKNTVYLQMNSLKPEYTAVYYWAAPTSSSGRYHRYYYWGQGTQVTVSS	polyreactivity (PSR sort gate)	high polyreactivity
QVQLVESGGGLVQAGGSLRLSCAASGRIFGVNAMGWYRQAPGKERELVAAIRYSGGSTYYADSVKGRFTISRDNAKNTVYLQMNSLKPEDTAVYYCAKARYTYSWSFGYWGQGTQVTVSS	polyreactivity (PSR sort gate)	low polyreactivity
QVQLVESGGCLVQAGGSLRLSCAASGYIFSGYAMGWYRQAPGKERELVAAISSNGGSTYYADSVKGRFTISRDNAKNTVYLPMNSMKPEDTAVYYCKRGLAARVGRVDYWGQGTHVTVSS	polyreactivity (PSR sort gate)	low polyreactivity
QVQLGESGGGLDQAGGSLRLSCAASGRTFTNNAMGWYRQAPGKERELVAAITSGGRTNYADSVKGRFTISRDNAKNTVYLQMNSLKPEDTAVYYFAARIPSDGYYYWGQGTQVTVSS	polyreactivity (PSR sort gate)	high polyreactivity
QVQLVESGGGLVQAGGSLRLSCAASGSIFAVYVMGWYRQAPGKERDFVAAITYSGTSTNYADSVKGRFTISRDNAKNTVYLQMNSLKPEDTAVFYCAADVRSSNGHYTLYDYWGQGTQVTVSS	polyreactivity (PSR sort gate)	high polyreactivity
QVQLVESGGGLVQAGGSLRLICAASGLIFVRYAMGWYRQAPGKERELVATITWSGGTTYADSVKGRFTISRDNAKNTVYLQMNSLNPEDTAVYYCAVEWPAWTDSDYPVGGHAFGYWGQGTQVTVSS	polyreactivity (PSR sort gate)	low polyreactivity
QFHLVESGRDFVQAAGSLLLSCAASASIFRYYTMGWYRQAPGKETELVATITDRGTSTYDADSVKGRFTLSRESV	polyreactivity (PSR sort gate)	high polyreactivity
QVQLVESGGGLVQAGGSLRLSCAASGRTIYQNAMGWYRQAPGKEREFVAAITGGTGSTHYADSVKGRFTISRDNAKITVYLQMNSLKPEDSAVYYCATRYLFGFSRYDYWGQGTQVTVSS	polyreactivity (PSR sort gate)	low polyreactivity
QVQLVESGGGLVQAGGSLRLSCAASGRTFSANAMGWYRQAPGTEREGVATMTVRGGSTNYADSVKGRFTISRDNAKNTVYLQMNSLKPEDTAVYYCNAYVNSNVRWAYWGFDYCGQGTQVTVSS	polyreactivity (PSR sort gate)	high polyreactivity
QVQLVESGGGLVQAGGSLRLTCAASGSTSGQNAMGRYRQAPGNERELVAAISSSAGSTYADSVKGRFTISRDNAKNTVYLQMNSLKPEDTAVYYCNVPYYYTRGSYGYWGQGTQVTVSS	polyreactivity (PSR sort gate)	low polyreactivity
